These entries and their values trace back to patent US8440701B2.

Listed below: PAM_type values for each entry.
target-or-test-system: hα7-wt nAChR (Homo sapiens)
Construct: expressed in transfected cells; host or cells: GH4C1 cells (recombinant, stably over-expressing)
Sequence (P36544 23-502): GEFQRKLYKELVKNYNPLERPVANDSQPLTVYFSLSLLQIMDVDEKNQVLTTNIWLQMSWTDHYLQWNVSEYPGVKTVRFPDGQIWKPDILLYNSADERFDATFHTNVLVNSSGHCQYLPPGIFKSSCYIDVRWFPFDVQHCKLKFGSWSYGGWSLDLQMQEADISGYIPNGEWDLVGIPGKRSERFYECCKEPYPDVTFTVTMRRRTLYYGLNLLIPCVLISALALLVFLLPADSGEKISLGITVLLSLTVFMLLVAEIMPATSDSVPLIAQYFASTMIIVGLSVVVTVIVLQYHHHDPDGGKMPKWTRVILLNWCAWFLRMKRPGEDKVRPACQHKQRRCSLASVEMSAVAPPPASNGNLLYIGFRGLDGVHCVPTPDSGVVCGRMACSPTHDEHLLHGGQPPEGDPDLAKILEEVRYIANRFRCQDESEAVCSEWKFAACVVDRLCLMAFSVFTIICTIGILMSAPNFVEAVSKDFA
assay-overview: Whole-cell voltage-clamp recording, PAM type classification
Type: cell-based
Parameters: key: Type 1 compounds enhance the effect size of the current elicited by 1 mM choline but minimally alter the kinetics of the receptor.; Type 2 compounds enhance the effect size of the current elicited by 1 mM choline while reducing the rate and/or the extent of desensitization.; Type 3 compounds enhance the effect size of the current elicited by 1 mM choline. When tested at higher concentrations up to 10 μM they completely inhibit desensitization, in particular a 1 mM choline application of 250 milliseconds.; Type 4 compounds allow for an initial desensitization of the receptor followed by a re-opening of the receptor during agonist application
particulars: qualitative kinetic properties; 1 mM choline; hα7-wt nAChR-expressing GH4C1 cells
measured-property: PAM_type

INSERT INTO assay_data (compound, assay_value) VALUES
  ('CCC(O)Cn1nc(Nc2cccc(Cl)c2)nc1-c1ccnc(C)c1 (stereo not drawn)', 2),
  ('CCCC(O)Cn1nc(Nc2cccc(Cl)c2)nc1-c1cc(C)nc(C)c1 (single isomer, unassigned) [Compound E24]', 2),
  ('CCCC(O)Cn1nc(Nc2cccc(Cl)c2)nc1-c1cc(C)nc(C)c1 (single isomer, unassigned) [Compound E23]', 1),
  ('CCNc1cc(-c2nc(Nc3cccc(Cl)c3)nn2C[C@H](O)CC)ccn1', 1),
  ('CC[C@H](O)Cn1nc(Nc2ccc(F)c(F)c2F)nc1-c1ccnc(C)c1', 2),
  ('CCCCC(O)Cn1nc(Nc2ccc(F)c(F)c2)nc1-c1cc(C)nc(C)c1 (single isomer, unassigned; (+))', 2),
  ('CC[C@H](O)Cn1nc(Nc2cccc(Cl)c2F)nc1-c1cc(C)nc(C)c1', 2),
  ('CCCC(O)Cn1nc(Nc2ccc(F)c(F)c2)nc1-c1cc(C)nc(C)c1 (single isomer, unassigned) [Compound E13]', 1),
  ('CC[C@H](O)Cn1nc(Nc2cc(OC)cc(C(F)(F)F)c2)nc1-c1cc(C)nc(C)c1', 2),
  ('CCC(O)Cn1nc(Nc2cccc(Cl)c2)nc1-c1cc(C)nc(C)c1 (single isomer, unassigned) [Compound E18]', 1),
  ('CCNc1cc(-c2nc(Nc3cccc(Cl)c3)nn2C[C@@H](O)CC)ccn1 [Compound E2]', 2),
  ('CCCC(O)Cn1nc(Nc2ccc(F)c(F)c2)nc1-c1ccnc(C)c1 (single isomer, unassigned) [Compound E15]', 1),
  ('CCC(O)Cn1nc(Nc2cc(OC)cc(C(F)(F)F)c2)nc1-c1ccnc(C)c1 (single isomer, unassigned) [Compound E20]', 4),
  ('CCCC(O)Cn1nc(Nc2ccc(F)c(F)c2)nc1-c1ccnc(C)c1 (single isomer, unassigned) [Compound E16]', 2),
  ('CC[C@H](O)Cn1nc(Nc2ccc(F)c(F)c2F)nc1-c1cc(C)nc(C)c1', 2);
